target: KRAS G12C (Homo sapiens, UniProt P01116+P62937, G12C); experiment: Ras-Raf disruption / FRET / MOA assay (BRAF RBD); assay type: biochemical; conditions: Ras-Raf disruption, with Cyclophilin A; read-out: KRAS G12C FRET data IC50
Sequence (P01116 1-169 isoform P01116-2 G12C limits assumed): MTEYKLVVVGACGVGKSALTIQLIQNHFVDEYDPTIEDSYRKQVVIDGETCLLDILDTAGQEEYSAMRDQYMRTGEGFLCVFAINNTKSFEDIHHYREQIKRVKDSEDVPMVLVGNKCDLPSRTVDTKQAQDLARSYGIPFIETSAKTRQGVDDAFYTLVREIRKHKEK
Sequence (P62937 whole entry): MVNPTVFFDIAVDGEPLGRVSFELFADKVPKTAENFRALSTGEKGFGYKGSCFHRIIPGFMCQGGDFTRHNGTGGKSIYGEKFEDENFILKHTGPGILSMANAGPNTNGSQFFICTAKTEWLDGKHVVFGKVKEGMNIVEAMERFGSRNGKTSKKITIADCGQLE
Please go through the items and note down their IC50.

State the recorded IC50 for this entry: CCn1c(-c2cccnc2[C@H](C)OC)c2c3cc(ccc31)-c1cc(O)cc(c1)C[C@H](NC(=O)[C@H](C(C)C)N(C)C(=O)C1CN(S(=O)(=O)[C@H]3CN3C)C1)C(=O)N1CCC[C@H](N1)C(=O)OCC(C)(C)C2 (single isomer, unassigned)
10 to 100 nM

State the recorded IC50 for this entry: CCn1c(-c2cccnc2[C@H](C)OC)c2c3cc(ccc31)-c1cc(O)cc(c1)C[C@H](NC(=O)[C@H](C(C)C)N(C)C(=O)[C@H]1C[C@H]3CC[C@@H](C1)N3C(=O)[C@@H]1CN1)C(=O)N1CCC[C@H](N1)C(=O)OCC(C)(C)C2 (atropisomer, axis not shown)
10 to 100 nM

====

target: NRAS G12C (Homo sapiens, UniProt P01111+P62937, G12C); experiment: Disruption of BRAF RBD interaction with Ras (FRET / MOA assay, with Cyclophilin A); type: biochemical; details: NRAS G12C; read-out: NRAS G12C FRET data IC50
Sequence (P01111 whole entry G12C, one chain of several): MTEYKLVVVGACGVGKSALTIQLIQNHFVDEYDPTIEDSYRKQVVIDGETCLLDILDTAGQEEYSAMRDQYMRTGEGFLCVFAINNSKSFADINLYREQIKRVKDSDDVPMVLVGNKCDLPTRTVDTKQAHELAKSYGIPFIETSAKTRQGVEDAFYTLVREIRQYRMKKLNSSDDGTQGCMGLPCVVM
parameter-measured: IC50

State the recorded IC50 for this entry: CCn1c(-c2cccnc2[C@H](C)OC)c2c3cc(ccc31)-c1csc(n1)C[C@H](NC(=O)[C@H](C(C)C)N(C)C(=O)[C@H]1CCN(C(=O)CN)C1)C(=O)N1CCC[C@H](N1)C(=O)OCC(C)(C)C2
100 to 1000 nM

State the recorded IC50 for this entry: CCn1c(-c2cccnc2[C@H](C)OC)c2c3cc(ccc31)-c1csc(n1)C[C@H](NC(=O)[C@H](C(C)C)N(C)C(=O)N1CC[C@H](N(C)C)C1)C(=O)N1CCC[C@H](N1)C(=O)OCC(C)(C)C2
100 to 1000 nM

State the recorded IC50 for this entry: CCn1c(-c2cccnc2[C@H](C)OC)c2c3cc(ccc31)-c1cc(O)cc(c1)C[C@H](NC(=O)[C@H](C(C)C)N(C)C(=O)[C@@H]1CC1(C)C)C(=O)N1CCC[C@H](N1)C(=O)OCC(C)(C)C2
10 to 100 nM

State the recorded IC50 for this entry: CCn1c(-c2cccnc2[C@H](C)OC)c2c3cc(ccc31)-c1csc(n1)C[C@H](NC(=O)[C@H](C(C)C)N(C)C(=O)N1CCC3(CCN(C)CC3)C1)C(=O)N1CCC[C@H](N1)C(=O)OCC(C)(C)C2 (atropisomer, axis not shown)
10 to 100 nM

State the recorded IC50 for this entry: CCn1c(-c2cccnc2[C@H](C)OC)c2c3cc(ccc31)-c1cc(O)cc(c1)C[C@H](NC(=O)[C@H](C(C)C)N(C)C(=O)[C@H]1CCN(C(=O)C(C)(C)N(C)C)C1)C(=O)N1CCC[C@H](N1)C(=O)OCC(C)(C)C2 (atropisomer, axis not shown)
10 to 100 nM

State the recorded IC50 for this entry: CCn1c(-c2cnccc2COC)c2c3cc(ccc31)-c1cc(O)cc(c1)C[C@H](NC(=O)[C@H](C(C)C)N1CCCCC1=O)C(=O)N1CCC[C@H](N1)C(=O)OCC(C)(C)C2
100 to 1000 nM

State the recorded IC50 for this entry: CCn1c(-c2cccnc2[C@H](C)OC)c2c3cc(ccc31)-c1nc(cs1)C[C@H](NC(=O)[C@H](C(C)C)N(C)C(C)=O)C(=O)N1CCC[C@H](N1)C(=O)OCC(C)(C)C2
1000 to 10000 nM

State the recorded IC50 for this entry: CCn1c(-c2cccnc2[C@H](C)OC)c2c3cc(ccc31)-c1csc(n1)C[C@H](NC(=O)[C@H](C(C)C)N(C)C(=O)N1CCN(C(=O)C3COC3)CC1)C(=O)N1CCC[C@H](N1)C(=O)OCC(C)(C)C2 (atropisomer, axis not shown)
10 to 100 nM

State the recorded IC50 for this entry: CCn1c(-c2cccnc2[C@H](C)OC)c2c3cc(ccc31)-c1csc(n1)C[C@H](NC(=O)[C@H](C(C)C)N(C)C(=O)N1CC[C@@H]1CN(C)C)C(=O)N1CCC[C@H](N1)C(=O)OCC(C)(C)C2
100 to 1000 nM

The origin of these recorded values is patent US20230233569A1.
